TARGET UNDER TEST: T1, native IHFNTHI (integration host factor of nontypeable Haemophilus influenzae) (nontypeable Haemophilus influenzae …, UniProt P43723 1-96; P43724 1-94)
T1 construct: also called NTHI IHF
T1 sequence 1: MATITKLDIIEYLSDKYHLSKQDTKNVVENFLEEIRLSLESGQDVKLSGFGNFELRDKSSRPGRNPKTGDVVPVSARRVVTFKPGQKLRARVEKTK
T1 sequence 2: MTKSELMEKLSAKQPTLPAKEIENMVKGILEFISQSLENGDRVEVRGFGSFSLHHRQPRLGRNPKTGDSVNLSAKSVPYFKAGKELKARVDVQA
EXPERIMENT DESCRIPTION: SPR Biacore 3000, HuMab immobilized, IHFNTHI as analyte
Overview of reported koff across a group of binders:
OBSERVED PROPERTY: koff (s⁻¹)

binder="humanized anti-tip monoclonal antibody, heavy chain SEQ ID NO: 2 and light chain SEQ ID NO: 9 (antibody, V domains shown, also called H10211 (1F8.F1 Humanized HC2) + L10212 (1F8.F1 Humanized LC3)) VH: EVQLVESGGGLVQPGGSLRLSCAASGFTFRTYAMSWVRQAPGKGLEWVATIGSDRRHTYYPDSVKGRFTISRDNSKNTLYLQMNSLRAEDTAVYYCVGPYDGYYGEFDYWGQGTLVTVSS VL: DVVMTQSPDSLAVSLGERATINCKSSQSLLDSDGKTFLNWLQQKPGQPPKRLIYLVSKLDSGVPDRFSGSGSGTDFTLTISSLQAEDVAVYYCWQGTHFPYTFGQGTKLEIKR" observed_property=koff observed=0.00045
binder="humanized anti-tip monoclonal antibody, heavy chain SEQ ID NO: 3 and light chain SEQ ID NO: 7 (antibody, V domains shown, also called H10212 (1F8.F1 Humanized HC3) + L10210 (1F8.F1 Humanized LC1)) VH: EVKLVQSGAEVKKPGASVKVSCKASGFTFRTYAMSWVRQAPGQRLEWVATIGSDRRHTYYPDKFQGRVTITRDNAKNTLYMELSSLRSEDTAVYYCVGPYDGYYGEFDYWGQGTLVTVSS VL: DVVMTQSPLSLPVTLGQPASISCRSSQSLLDSDGKTFLNWLQQRPGQSPRRLIYLVSKLDSGVPDRFSGSGSGTDFTLKISRVEAEDVGVYYCWQGTHFPYTFGQGTKLEIKR" observed_property=koff observed=0.0004
binder="humanized anti-tip monoclonal antibody, heavy chain SEQ ID NO: 2 and light chain SEQ ID NO: 7 (antibody, V domains shown, also called H10211 (1F8.F1 Humanized HC2) + L10210 (1F8.F1 Humanized LC1)) VH: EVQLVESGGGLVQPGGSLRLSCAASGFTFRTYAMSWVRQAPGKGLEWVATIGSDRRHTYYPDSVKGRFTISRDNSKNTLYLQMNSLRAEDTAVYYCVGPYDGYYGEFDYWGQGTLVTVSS VL: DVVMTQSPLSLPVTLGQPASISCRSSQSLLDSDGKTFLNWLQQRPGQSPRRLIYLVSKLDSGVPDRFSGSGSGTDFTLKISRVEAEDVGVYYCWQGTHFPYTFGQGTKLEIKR" observed_property=koff observed=0.0004
binder="humanized anti-tip monoclonal antibody, heavy chain SEQ ID NO: 2 and light chain SEQ ID NO: 8 (antibody, V domains shown, also called H10211 (1F8.F1 Humanized HC2) + L10211 (1F8.F1 Humanized LC2)) VH: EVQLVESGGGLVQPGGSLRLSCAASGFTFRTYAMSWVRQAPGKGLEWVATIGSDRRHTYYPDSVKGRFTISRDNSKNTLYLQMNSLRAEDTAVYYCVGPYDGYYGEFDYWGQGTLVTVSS VL: DVVMTQSPLSLPVTLGQPASISCRSSQSLLDSDGKTFLNWLQQRPGQSPRRLIYLVSKRDSGVPDRFSGSGSGTDFTLKISRVEAEDVGVYYCWQGTHFPYTFGQGTKLEIKR" observed_property=koff observed=0.00059
binder="humanized anti-tip monoclonal antibody, heavy chain SEQ ID NO: 3 and light chain SEQ ID NO: 8 (antibody, V domains shown, also called H10212 (1F8.F1 Humanized HC3) + L10211 (1F8.F1 Humanized LC2)) VH: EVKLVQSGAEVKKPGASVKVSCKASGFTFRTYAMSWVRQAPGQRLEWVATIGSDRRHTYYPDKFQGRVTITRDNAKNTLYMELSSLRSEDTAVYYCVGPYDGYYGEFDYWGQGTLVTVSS VL: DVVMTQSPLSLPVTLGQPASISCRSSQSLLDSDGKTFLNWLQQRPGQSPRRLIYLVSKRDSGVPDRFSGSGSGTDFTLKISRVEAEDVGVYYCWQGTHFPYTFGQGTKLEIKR" observed_property=koff observed=0.0018

Each recorded value in this set is attributed to patent US20210206841A1.
